Biological target: UniProt Q16831
Sequence (Q16831 whole entry): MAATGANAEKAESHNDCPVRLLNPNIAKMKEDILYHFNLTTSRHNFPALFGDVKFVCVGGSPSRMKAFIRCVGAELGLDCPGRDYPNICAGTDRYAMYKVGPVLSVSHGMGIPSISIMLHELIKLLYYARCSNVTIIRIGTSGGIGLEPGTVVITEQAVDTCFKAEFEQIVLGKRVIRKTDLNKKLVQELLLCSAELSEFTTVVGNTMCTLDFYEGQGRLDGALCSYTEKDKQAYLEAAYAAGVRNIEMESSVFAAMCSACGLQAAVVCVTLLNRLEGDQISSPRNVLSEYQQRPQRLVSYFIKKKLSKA
Assay: isothermal titration microcalorimetry (ITC), free enzyme
Type: binding
Each entry below carries its reported ΔH°.
Please append the unit to your numeric answer.

What does the record list as ΔH° for O=c1[nH]c(=O)n(COCCO)cc1Cc1ccccc1 [BAU, benzil acyclo uridine, reference compound] ?
-10 ± 0.1 kcal/mol

What does the record list as ΔH° for `Cc1cc(O)[nH]c(=O)c1C#N` ?
-8.7 ± 0.7 kcal/mol

What does the record list as ΔH° for `Cc1c(CN(C)C)c(O)[nH]c(=O)c1C#N` ?
-6.7 ± 0.2 kcal/mol

What does the record list as ΔH° for `Cc1c(CNCCO)c(O)[nH]c(=O)c1C#N` ?
-23 ± 0.5 kcal/mol

What does the record list as ΔH° for Cc1c(CNCC(O)CO)c(O)[nH]c(=O)c1C#N (stereo not drawn) ?
-22 ± 2.2 kcal/mol

Note: attention shifts to another entry.
What does the record list as ΔH° for `N#Cc1ccc(O)[nH]c1=O` ?
-9.6 ± 0.3 kcal/mol
